Experimental System: IDH1 R132H (Homo sapiens, UniProt O75874, R132H)
Sequence (O75874 whole entry R132H): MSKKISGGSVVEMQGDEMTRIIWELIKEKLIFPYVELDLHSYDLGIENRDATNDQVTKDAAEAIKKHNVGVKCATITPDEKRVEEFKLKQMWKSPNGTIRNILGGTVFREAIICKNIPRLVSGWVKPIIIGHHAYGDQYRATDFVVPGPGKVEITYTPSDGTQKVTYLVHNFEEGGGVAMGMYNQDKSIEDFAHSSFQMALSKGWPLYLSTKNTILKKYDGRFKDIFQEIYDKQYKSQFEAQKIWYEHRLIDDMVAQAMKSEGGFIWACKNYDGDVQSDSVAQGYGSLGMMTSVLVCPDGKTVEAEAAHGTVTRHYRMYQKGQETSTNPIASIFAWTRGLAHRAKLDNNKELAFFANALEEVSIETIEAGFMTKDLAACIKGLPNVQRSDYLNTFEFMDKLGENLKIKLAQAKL
Assay: IDH1 R132H enzymatic assay (NADPH depletion coupled to diaphorase/resazurin)
Format: biochemical
Assay Context: IDH1 R132H enzymatic inhibition, IC50 class
Below: a set of entries, each annotated with reported IC50.

Field: example entries. Status: answers known.
CCc1cccc(CC)c1-n1c(C=C(C)C)c(C(=O)N2C[C@H]3CC[C@@H](C2)N3)cc(-c2nc(-c3ccc(C(F)(F)F)cc3)cs2)c1=O [Compound 323] | < 300 nM
O=C1CCCc2c1cc(-c1nc(-c3ccc(Cl)cc3)cs1)c(=O)n2-c1ccccc1OCC(F)(F)F [Compound 343] | 1000 to 5000 nM
COc1ccc(OC)c(-n2c3c(cc(-c4nc(C5CCCCC5)cs4)c2=O)C(=O)CC(C)(C)C3)c1 [Compound 69] | 1000 to 5000 nM
CCc1cccc(CC)c1-n1c2c(cc(-c3nc(-c4ccc(C)cc4)cs3)c1=O)C(=O)CC(C)(C)C2 [Compound 233] | 300 to 1000 nM
CCc1cccc(CC)c1-n1c(CC(C)C)c(C(=O)N2CCCCC2CO)cc(-c2nc(-c3ccc(Cl)cc3)cs2)c1=O (stereo not shown) [Compound 312] | 1000 to 5000 nM

Prompt: Give recorded IC50. CCc1cccc(CC)c1-n1c(CC(C)C)c(C(=O)N2CCNCC2)cc(-c2nc(-c3ccc(Cl)cc3F)c(C)s2)c1=O [Compound 632]
Response: 300 to 1000 nM

Prompt: Given CCc1cccc(CC)c1-n1c(CC(C)C)c(C(=O)N2CCN[C@H](CO)C2)cc(-c2nc(-c3ccc(Cl)cc3)cs2)c1=O [Compound 283] , respond with its IC50.
Response: 300 to 1000 nM

###

Experimental System: IDH1 R132C (Homo sapiens, UniProt O75874, R132C)
Sequence (O75874 whole entry R132C): as the sequence (O75874 whole entry R132H) above, with H132C counted along it
Assay: IDH1 R132C enzymatic assay (NADPH depletion coupled to diaphorase/resazurin)
Assay type: biochemical
Assay Context: enzymatic inhibition, IDH1 R132C
// values below are reported IC50

CCCc1c(C(=O)N2CCNCC2)cc(-c2nc(-c3ccc(Cl)cc3)cs2)c(=O)n1-c1c(CC)cccc1CC [Compound 473] | < 0.3 µM
COc1ccc(C#N)cc1-n1c2c(cc(-c3nc(-c4ccc(Cl)cc4)cs3)c1=O)C(=O)CC(C)(C)C2 [Compound 509] | 1 to 5 µM
CCc1cccc(CC)c1-n1c(C=C(C)C)c(C(=O)N2CCNCC2)cc(-c2nc(-c3ccc(OC4CC4)cc3)cs2)c1=O [Compound 605] | < 0.3 µM
Cc1cccc(CN2CCN(C)CC2)c1-n1c2c(cc(-c3nc(-c4ccc(Cl)cc4)cs3)c1=O)C(=O)CCC2 [Compound 468] | 5 to 20 µM
COc1ccc(F)cc1-n1c(C=C(C)C)c(C(=O)N2CCNCC2)cc(-c2ccn(-c3ccc(C(F)(F)F)cc3)n2)c1=O [Compound 532] | 1 to 5 µM
COc1ncc(Cl)cc1-n1c(C=C(C)C)c(C(=O)N2CCNCC2)cc(-c2nc(-c3ccc(Cl)cc3)cs2)c1=O [Compound 490] | < 0.3 µM

Prompt: Provide IC50, recorded with IDH1 R132C (Homo sapiens, UniProt O75874, R132C), of CN1CCN(Cc2cccc(-n3c4c(cc(-c5nc(-c6ccc(Cl)cc6)cs5)c3=O)C(=O)CC(C)(C)C4)c2)CC1 [Compound 445]
Response: 5 to 20 µM

Source: patent US10703746B2
